The reported measurements were obtained from patent US8765779B2.

Quick reference for melting point among some compounds
Counter-ions that a name gives are not always drawn.

# compound, melting point
measured = [
    ("Cc1cccc(S(=O)(=O)c2ccc3c(c2)OC2CNCCC32C)n1 (racemic) (as salt: HCl)", "255 to 258 °C"),
    ("CC12CCNCC1Oc1ccc(S(=O)(=O)c3cccc(Cl)c3Cl)cc12 (stereo not shown) [Example 101]", "210 to 212 °C"),
    ("O=S(=O)(c1ccc2c(c1)OC1CNCCC21)c1cccc2nonc12 (stereo not shown)", "189 to 190 °C"),
    ("COc1cc(OC)cc(S(=O)(=O)c2ccc3c(c2)OC2CNCCC32C)c1 (stereo not shown) (as salt: HCl) [Example 490]", "250 to 252 °C"),
    ("O=S(=O)(c1ccc2c3c(oc2c1)CNCC3)c1cccc(Cl)c1F", "245 to 246 °C"),
    ("CC(C)Oc1cccc(S(=O)(=O)c2ccc3c4c(oc3c2)C(C)(C(F)F)NCC4)c1 (single isomer, unassigned) (as salt: HCl)", "219 to 222 °C"),
    ("O=S(=O)(c1cc(F)cc(OCC2CCOCC2)c1)c1ccc2c(c1)OC1CNCCC21 (stereo not shown) (as salt: HCl)", "203 to 204 °C"),
]

---

Structures can show the parent of a compound that is named as a salt.

# compound, melting point
data = [
    ("O=S(=O)(c1cccc(Oc2ccccn2)c1)c1ccc2c(c1)OC1CNCCC21 (stereo not drawn) (as salt: HCl)", "198 to 203 °C"),
    ("CCCOc1cccc(S(=O)(=O)c2ccc3c(c2)OC2CNCCC32)c1 (stereo not drawn) (as salt: HCl)", "210 to 213 °C"),
    ("O=S(=O)(c1ccc2c(c1)OC1CNCCC21)c1c(Cl)cccc1Cl (stereo not drawn)", "222 to 223 °C"),
    ("N#CCCCCOc1cccc(S(=O)(=O)c2ccc3c(c2)OC2CNCCC32)c1 (stereo not drawn) (as salt: HCl)", "189 to 190 °C"),
    ("CC1OCCC12NCCc1c2oc2cc(S(=O)(=O)c3cccc(F)c3)ccc12 (single isomer, unassigned) (as salt: HCl) [Example 60]", "298 to 301 °C (dec.)"),
    ("COc1cc2c(cc1S(=O)(=O)c1cccc(Cl)c1Cl)C1CCNCC1O2 (stereo not drawn)", "216 to 217 °C"),
]

---

Quick reference for pKi among some molecules
Biological target: human 5-HT6 receptor (Homo sapiens)
Construct: host or cells: CHO-K1 cells, stably transfected; membranes prepared in house
Sequence (P50406 whole entry): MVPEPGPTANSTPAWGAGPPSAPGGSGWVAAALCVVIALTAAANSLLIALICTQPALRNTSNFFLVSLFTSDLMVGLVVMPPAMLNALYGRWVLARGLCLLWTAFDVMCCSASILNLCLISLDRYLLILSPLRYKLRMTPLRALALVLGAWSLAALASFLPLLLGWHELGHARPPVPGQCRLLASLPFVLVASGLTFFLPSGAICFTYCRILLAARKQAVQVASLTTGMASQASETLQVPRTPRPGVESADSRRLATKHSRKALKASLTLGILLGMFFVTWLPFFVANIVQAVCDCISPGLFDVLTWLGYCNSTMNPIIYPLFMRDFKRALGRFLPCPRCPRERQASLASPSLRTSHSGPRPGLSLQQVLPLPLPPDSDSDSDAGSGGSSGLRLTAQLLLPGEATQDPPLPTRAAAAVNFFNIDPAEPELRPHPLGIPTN
Test: Human 5-HT6 Receptor Binding Assay ([3H]LSD displacement, scintillation beads)
Conditions: membranes of CHO-K1 cells with recombinant human 5-HT6, 4 nM [3H]LSD; Table 1, class symbols; read-out: h5-HT6 (Ki)
pKi: −log10 of the molar value.
assay.endpoint: pKi

# molecule, measurement
rows = [
    ("Cc1cccc(S(=O)(=O)c2ccc3oc4c(c3c2)CCNC4)n1", "> 6.30"),
    ("O=S(=O)(Oc1ccc2c(c1)OC1CN(CCc3ccccc3)CCC21)c1ccc(Cl)cc1 (stereo not shown)", "< 6.00"),
    ("O=S(=O)(Oc1ccc2c(c1)C1CCNCC1O2)c1ccc(F)cc1 (stereo not shown)", "< 6.00"),
    ("CC(C)C1NCCc2c1oc1cc(S(=O)(=O)c3cccc(Cl)c3)ccc21 (stereo not shown)", "> 6.30"),
    ("O=S(=O)(Oc1ccc2c(c1)C1CCNCC1O2)c1cc2ccccc2s1 (stereo not shown)", "> 6.30"),
    ("O=S(=O)(c1cccnc1)c1ccc2c3c(oc2c1)CNCC3", "> 6.30"),
    ("O=S(=O)(c1cccc(F)c1)c1ccc2oc3c(c2c1)CCNC3C1CCCC1 (stereo not shown)", "> 6.30"),
    ("O=S(=O)(c1cccc(Cl)c1)c1ccc2c3c(oc2c1)CN(CCO)CC3", "> 6.30"),
    ("CC(C)c1ccc(S(=O)(=O)Oc2ccc3c(c2)OC2CNCCC32)cc1 (stereo not shown) [Example 657]", "> 6.30"),
    ("O=[N+]([O-])c1ccc(S(=O)(=O)c2cccc3c2OC2CNCCC32)cc1 (stereo not shown)", "< 6.00"),
    ("O=S(=O)(c1cc(F)cc(Cl)c1)c1ccc2c(c1)OC1CNCCC21 (stereo not shown) [Example 157]", "> 6.30"),
    ("CN(C)C(=O)CC1(C)NCCc2c1oc1cc(S(=O)(=O)c3cccc(F)c3)ccc21 (single isomer, unassigned) [Example 50]", "> 6.30"),
    ("COC(=O)c1cc(Cl)cc(S(=O)(=O)c2ccc3c(c2)OC2CNCCC32)c1 (stereo not shown)", "< 6.00"),
]
